Test: in vivo
Conditions: rat, plasma, iv, 1 mg/kg
Each record is given Satisfied if its reported clearance is strictly below 40 mL/min/kg. Records at or above 40 mL/min/kg are given Not satisfied.

For orientation, consider the following solved cases.
*Q* I wonder whether `CNC(=O)c1ccc2c(c1)OCCc1cc(C(=O)N(C)c3cc(C(=O)N(C)C)ccc3Cl)sc1-2` has clearance below 40 mL/min/kg. Can you tell?
*A* Not satisfied

*Q* Then this molecule: `CNC(=O)c1ccc2c(c1)OCCc1cc(C(=O)N(C)c3ccc(F)cc3Cl)sc1-2`
*A* Not satisfied

*Q* Please give the result for `CN(C(=O)c1cc2c(s1)-c1ccc(C(N)=O)cc1OCC2)c1ccccc1Cl` too.
*A* Not satisfied

*Q* Would you mind doing `CN(C(=O)c1cc2c(s1)-c1ccccc1OCC2)c1ccccc1Cl` as well?
*A* Not satisfied

Further cases:
*Q* Answer whether the molecule `CN(C(=O)c1cc2c(s1)-c1ccccc1OCC2)c1ccncc1Cl` has clearance strictly less than 40 mL/min/kg
*A* Satisfied

*Q* Request: `CNC(=O)c1ccc(N(C)C(=O)c2cc3c(s2)-c2ccc(C(=O)NC)cc2OCC3)c(Cl)c1`
*A* Satisfied

*Q* `COC(=O)Nc1ccc2c(c1)OCCc1cc(C(=O)N(C)c3ccccc3Cl)sc1-2` ?
*A* Not satisfied

*Q* Cool, now `CNC(=O)c1ccc2c(c1)OCCc1cc(C(=O)N(C)c3ccc(C(=O)N(C)C)cc3Cl)sc1-2`
*A* Satisfied

* * *

Experiment: Plasma clearance in dog at 2 mg/kg
Type: ADME, organism-based, Canis lupus familiaris
Design: dose 2 mg/kg
Property measured: clearance (mL/min/kg)
Give just the number in mL/min/kg; leave the unit off.

*Q* Which clearance is listed for `CNC(=O)c1ccc2c(c1)OCCc1cc(C(=O)N(C)c3ccc(C(=O)N(C)C)cc3Cl)sc1-2` ?
*A* 5

* * *

Assay: in vivo
Conditions: nude, mouse, plasma, po, 50 mg/kg
Property measured: concentration at 6 h (µM)
Use µM as the unit, but write only the number.

*Q* // concentration at 6 h lookup, key: `CNC(=O)c1ccc2c(c1)OCCc1cc(C(=O)N(C)c3ccc(C(=O)N(C)C)cc3Cl)sc1-2`
*A* 11.1

* * *

Assay: AUC in rat at 100 mg/kg
Type: ADME, organism-based
Parameters: dose 100 mg/kg
Conditions: plasma
Property measured: AUC (µM·h)
Give your result in µM·h as a bare value.

*Q* Record request: AUC value, item `CNC(=O)c1ccc2c(c1)OCCc1cc(C(=O)N(C)c3ccc(C(=O)N(C)C)cc3Cl)sc1-2`
*A* 39

* * *

Assay: AUC in mouse at 100 mg/kg
Format: ADME, organism-based
Design: dose 100 mg/kg
Conditions: plasma
Property measured: AUC
In your response, put the unit directly after the numeric value.

*Q* Recorded AUC for `CNC(=O)c1ccc2c(c1)OCCc1cc(C(=O)N(C)c3ccc(C(=O)N(C)C)cc3Cl)sc1-2` , please?
*A* 330 µM·h

* * *

Experiment: Oral bioavailability in mouse at 100 mg/kg
Type: ADME, organism-based
Conditions: in vivo
Property measured: bioavailability (%)
Quick reminder: number only, in %, skip the unit.

*Q* I have this molecule here, `CNC(=O)c1ccc2c(c1)OCCc1cc(C(=O)N(C)c3ccc(C(=O)N(C)C)cc3Cl)sc1-2` , and I need its recorded bioavailability.
*A* 28

* * *

Test: Plasma protein binding in human
Type: ADME, cell-free
Conditions: read-out: PPB (converted)
Property measured: fraction unbound
Write the value as a bare number.

*Q* Any idea what its fraction unbound is? The molecule is `CNC(=O)c1ccc2c(c1)OCCc1cc(C(=O)N(C)c3ccc(C(=O)N(C)C)cc3Cl)sc1-2`
*A* 0.03

* * *

Experiment: in vivo
Details: nude, mouse, plasma, po, 50 mg/kg
Property measured: concentration at 1 h (µM)
Numeric answer only, unit µM assumed.

*Q* Entry `CNC(=O)c1ccc2c(c1)OCCc1cc(C(=O)N(C)c3ccc(C(=O)N(C)C)cc3Cl)sc1-2` : reported concentration at 1 h = ?
*A* 7.38

* * *

Assay: in vivo
Details: nude, mouse, tumor, po, 50 mg/kg
Property measured: concentration at 1 h (nM)
Write the number in nM without appending the unit.

*Q* Entry `CNC(=O)c1ccc2c(c1)OCCc1cc(C(=O)N(C)c3ccc(C(=O)N(C)C)cc3Cl)sc1-2` : reported concentration at 1 h = ?
*A* 1080

* * *

Molecular target: Phosphatidylinositol 4,5-bisphosphate 3-kinase catalytic subunit alpha isoform (Homo sapiens)
Sequence (P42336 whole entry, canonical isoform): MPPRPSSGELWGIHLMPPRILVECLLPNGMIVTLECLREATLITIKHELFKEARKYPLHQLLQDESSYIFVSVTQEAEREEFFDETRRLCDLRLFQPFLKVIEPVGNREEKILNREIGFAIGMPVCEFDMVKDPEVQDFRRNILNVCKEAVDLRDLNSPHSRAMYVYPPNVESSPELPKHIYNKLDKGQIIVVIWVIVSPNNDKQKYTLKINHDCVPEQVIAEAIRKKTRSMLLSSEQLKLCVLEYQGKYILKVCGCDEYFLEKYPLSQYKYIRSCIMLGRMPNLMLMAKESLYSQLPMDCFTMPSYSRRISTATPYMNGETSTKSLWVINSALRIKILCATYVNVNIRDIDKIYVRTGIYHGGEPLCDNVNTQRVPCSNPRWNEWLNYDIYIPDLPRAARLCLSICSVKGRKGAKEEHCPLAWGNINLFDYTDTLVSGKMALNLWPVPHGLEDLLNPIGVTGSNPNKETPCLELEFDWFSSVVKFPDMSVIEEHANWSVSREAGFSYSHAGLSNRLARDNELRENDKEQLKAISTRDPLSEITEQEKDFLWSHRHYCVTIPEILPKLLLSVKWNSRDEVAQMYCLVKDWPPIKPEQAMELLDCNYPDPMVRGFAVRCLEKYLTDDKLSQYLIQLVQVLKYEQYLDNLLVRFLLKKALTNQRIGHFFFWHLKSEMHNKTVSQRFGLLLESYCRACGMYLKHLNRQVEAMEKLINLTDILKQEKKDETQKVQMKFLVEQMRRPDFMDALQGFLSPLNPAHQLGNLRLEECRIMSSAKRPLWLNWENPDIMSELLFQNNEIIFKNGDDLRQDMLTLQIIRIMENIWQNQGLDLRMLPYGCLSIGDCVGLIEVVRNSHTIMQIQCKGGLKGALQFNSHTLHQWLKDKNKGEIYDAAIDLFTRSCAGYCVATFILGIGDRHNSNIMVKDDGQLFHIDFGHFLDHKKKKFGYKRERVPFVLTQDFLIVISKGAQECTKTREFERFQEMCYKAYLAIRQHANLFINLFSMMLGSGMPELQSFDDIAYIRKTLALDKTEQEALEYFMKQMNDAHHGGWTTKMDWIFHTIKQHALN
Property measured: IC50 (nM)
Quick reminder: number only, in nM, skip the unit.

Answered examples (4):
*Q* Fill blank: measured IC50 of the molecule `CC(C)CN(C)C(=O)c1cc2c(s1)-c1ccccc1OC2` is ____.
*A* 17000

*Q* What do we get for `Cc1ccccc1N(C)C(=O)c1cc2c(s1)-c1ccccc1OC2` ?
*A* 699

*Q* Follow-up entry: `CN(C(=O)c1cc2c(s1)-c1ccccc1OC2)c1ccc(F)cc1`
*A* 1000

*Q* Further, for `CN(C(=O)c1cc2c(s1)-c1ccccc1OC2)c1cccc(F)c1` ?
*A* 1000

More entries:
*Q* Which IC50 is listed for `CC(C)N(C)C(=O)c1cc2c(s1)-c1ccccc1OC2` ?
*A* 5200

*Q* Let us now turn to `COc1ccccc1N(C)C(=O)c1cc2c(s1)-c1ccccc1OC2`
*A* 673

* * *

Test system: MCF7
Test: Antiproliferative activity against human MCF7 cells
Type: functional, cell-based
Property measured: pEC50
Remember the convention: pEC50 equals -log10 of concentration in molar.

*Q* Data request, read-out pEC50, for `CNC(=O)c1ccc2c(c1)OCCc1cc(C(=O)N(C)c3ccc(C(=O)N(C)C)cc3Cl)sc1-2`
*A* 6.59

* * *

Test: in vivo
Details: mouse, plasma, iv, 1 mg/kg
Entries annotated with measured clearance
State the value with its unit after it.

*Q* Consider the molecule `CNC(=O)c1ccc(N(C)C(=O)c2cc3c(s2)-c2ccc(C(=O)NC)cc2OCC3)c(Cl)c1` and give its measured clearance.
*A* 24 mL/min/kg

*Q* Also need `CNC(=O)c1ccc2c(c1)OCCc1cc(C(=O)N(C)c3ccc(F)cc3Cl)sc1-2` , thanks.
*A* 182 mL/min/kg

*Q* Another molecule: `CNC(=O)c1ccc2c(c1)OCCc1cc(C(=O)N(C)c3ccc(C(=O)N(C)C)cc3Cl)sc1-2`
*A* 15 mL/min/kg

Now for the molecule whose clearance we want.
*Q* For the molecule shown here, `CNC(=O)c1ccc2c(c1)OCCc1cc(C(=O)N(C)c3cc(C(=O)N(C)C)ccc3Cl)sc1-2` , give the reported clearance.
*A* 55 mL/min/kg

* * *

Assay: Plasma clearance in mouse at 100 mg/kg
Type: ADME, organism-based
Parameters: dose 100 mg/kg
Property measured: clearance (mL/min/kg)
Use mL/min/kg as the unit, but write only the number.

*Q* Entry `CNC(=O)c1ccc2c(c1)OCCc1cc(C(=O)N(C)c3ccc(C(=O)N(C)C)cc3Cl)sc1-2` : reported clearance = ?
*A* 15

* * *

Experiment: Plasma clearance in cynomolgus monkey
Assay type: ADME, organism-based, Macaca fascicularis
Property measured: clearance
Record the result as number plus unit.

*Q* Look at this compound and give its reported clearance. `CNC(=O)c1ccc2c(c1)OCCc1cc(C(=O)N(C)c3ccc(C(=O)N(C)C)cc3Cl)sc1-2`
*A* 0.6 L/h/kg

* * *

Experiment: Plasma protein binding in dog
Format: ADME, cell-free, Canis lupus familiaris
Conditions: read-out: PPB (converted)
Property measured: fraction unbound
Answer with the value's number alone.

*Q* # get_value(readout='fraction unbound', item= `CNC(=O)c1ccc2c(c1)OCCc1cc(C(=O)N(C)c3ccc(C(=O)N(C)C)cc3Cl)sc1-2` )
*A* 0.07

* * *

Assay: Oral bioavailability in rat at 100 mg/kg
Type: ADME, organism-based
Conditions: in vivo
Property measured: bioavailability (%)
Write the answer as a number in %, unit excluded.

*Q* Which bioavailability is listed for `CNC(=O)c1ccc2c(c1)OCCc1cc(C(=O)N(C)c3ccc(C(=O)N(C)C)cc3Cl)sc1-2` ?
*A* 50

* * *

Experiment: AUC in dog at 2 mg/kg
Format: ADME, organism-based, Canis lupus familiaris
Design: dose 2 mg/kg
Settings: plasma
Property measured: AUC (µM·h)
Numbers only; they are read as µM·h.

*Q* Find the recorded AUC belonging to `CNC(=O)c1ccc2c(c1)OCCc1cc(C(=O)N(C)c3ccc(C(=O)N(C)C)cc3Cl)sc1-2` and report it.
*A* 17

* * *

Assay: Plasma protein binding in mouse
Type: ADME, cell-free
Conditions: read-out: PPB (converted)
Property measured: fraction unbound

*Q* Form field: reported fraction unbound of `CNC(=O)c1ccc2c(c1)OCCc1cc(C(=O)N(C)c3ccc(C(=O)N(C)C)cc3Cl)sc1-2`
*A* 0.02
